This listing pairs compounds with measured collision cross section in nitrogen.
assay: collision cross section in nitrogen (drift tube, single-field); higher = larger gas-phase ion size; settings: ion type: [M+H]; ion source: APCI; ion mode: Positive;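 further: chemical standards at 10 µM analysed by drift tube IMS-QTOF MS in about 3.95 torr nitrogen, mean of duplicate injections differing ≤1%, mass error below 10 ppm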
Counter-ions that a name gives are not always drawn.
readout-label: collision cross section in nitrogen (Å²)

1. O=C1C[C@@H]2OCC=C3CN4CC[C@]56c7ccccc7N1[C@H]5[C@H]2[C@H]3C[C@H]46 [Strychnine hemisulphate salt]
172.6
2. CCCCN(CCCC)C(=O)N(CCCC)CCCC
177.3
3. Nc1nc(N)nc(-c2ccccc2)n1
140.2
4. CCOc1nc(F)cc2nc(S(=O)(=O)Nc3c(Cl)cccc3C(=O)OC)nn12
191
5. Cc1oc(-c2ccccc2)nc1CCOc1ccc(C[C@H](Nc2ccccc2C(=O)c2ccccc2)C(=O)O)cc1
217.4
6. CCOC(=O)[C@@H](C)Oc1ccc(Oc2nc3ccc(Cl)cc3o2)cc1
189.9
7. O=C(O)c1ccc2c(c1)nc(C(=O)NC1CCN(C3CC3)CC1)n2Cc1cc(-c2ccc(Cl)s2)on1
228.1

----------
This listing pairs molecules with measured collision cross section in nitrogen.
experiment: collision cross section in nitrogen (drift tube, single-field); higher = larger gas-phase ion size; conditions: ion type: [M+Na]; ion source: ESI; ion mode: Positive
readout-label: collision cross section in nitrogen (Å²)

1. CCCCCCC(C)OC(=O)COc1nc(F)c(Cl)c(N)c1Cl (centres undefined) [Fluroxypyr-meptyl]
194.3
2. COc1cc(C=O)cc2c1[C@H](COC(N)=O)[C@]1(OC(C)=O)ON2C[C@H]2[C@@H]1N2C(C)=O
190.5
3. CC(=O)N1CCN(c2ccc(OC[C@H]3CO[C@](Cn4ccnc4)(c4ccc(Cl)cc4Cl)O3)cc2)CC1 [Ketoconazole]
225.3
4. CNC(=O)N(C)c1nnc(C(C)(C)C)s1 [Tebuthiuron]
162.9
5. CCCCC(CC)C(=O)OCCOCCOCCOCCOC(=O)C(CC)CCCC (centres undefined) [Tetraethylene glycol di(2-ethylhexanoate)]
214.4
6. CO/C=C(/C(=O)OC)c1ccccc1Oc1cc(Oc2ccccc2C#N)ncn1 [Azoxystrobin]
199
7. CC[C@H](NC(=O)c1cc(F)ccc1NS(=O)(=O)c1cccc2cccnc12)c1ccccc1 [AVE3295]
205.8
8. COc1ccc2c(c1)c(CC(=O)O)c(C)n2C(=O)c1ccc(Cl)cc1 [Indomethacin]
191.6
9. O=C(O)C[C@H](O)C[C@H](O)/C=C/c1c(C2CC2)nc2ccccc2c1-c1ccc(F)cc1 [Pitavastatin calcium]
196.7

----------
test: collision cross section in nitrogen (drift tube, single-field); higher = larger gas-phase ion size; details: ion type: [M+H]; ion source: ESI; ion mode: Positive
Structures can show the parent of a compound that is named as a salt.
readout-label: collision cross section in nitrogen (Å²)

1) CN(C)c1nc(=O)n(C2CCCCC2)c(=O)n1C
162.8
2) COc1cc(-c2nc(NC(=O)c3cc4cc(C)cc(C)c4n3CC(=O)O)sc2CCC2CCCCC2)c(OC)cc1Cl
258.2
3) O=C(Nc1ccccc1)Nc1ccnc(Cl)c1
156.9
4) O=C(O)C[C@H](O)C[C@H](O)/C=C/c1c(C2CC2)nc2ccccc2c1-c1ccc(F)cc1
203.2
5) CC(=O)O[C@H](CC(=O)[O-])C[N+](C)(C)C [Acetyl-L-carnitine hydrochloride]
143.9
6) O=C(O)CCCC[C@@H]1SC[C@H]2NC(=O)N[C@@H]12
149.3
7) CCOc1ccc(NC(C)=O)cc1
141.5
8) O=C1OC2(c3ccccc31)c1cc(I)c(O)c(I)c1Oc1c2cc(I)c(O)c1I
211.3
9) Cc1ccc(N)cc1N
122.3
10) CC(C)(Oc1ccc(CCNC(=O)c2ccc(Cl)cc2)cc1)C(=O)O [Bezafibrate]
177.8
11) COc1cc(OC)c(C(=O)CCCN2CCCC2)c(OC)c1 [Buflomedil hydrochloride]
176.1
12) N=C1C=CC(=C(c2ccc(N)cc2)c2ccc(N)cc2)C=C1 [C.I. Basic Red 9 monohydrochloride]
174.1
13) NCc1cccnc1
119.6
14) O=S(=O)(O)CCN1CCN(CCO)CC1 [Sodium 2-[4-(2-hydroxyethyl)piperazin-1-yl]ethanesulfonate]
151.1
15) CCN(CCO)CCO
125.8
16) COCCc1ccc(OCC(O)CNC(C)C)cc1 (stereo unspecified)
172.1

----------
assay: collision cross section in nitrogen (drift tube, single-field); higher = larger gas-phase ion size; conditions: ion type: [M+H]; ion source: ESI; ion mode: Positive
This listing pairs molecules with measured collision cross section in nitrogen.
readout-label: collision cross section in nitrogen (Å²)

1) OCCNCc1ccccc1 [N-Benzylethanolamine]
134.9
2) Clc1cc(Cl)c2c(c1)N=C1CCCCCN1C2
159.3
3) Nc1ccc2cc(S(=O)(=O)O)cc(O)c2c1N=Nc1ccccc1C(F)(F)F [Acid Red 337]
191.7
4) CC(=O)OCC(=O)[C@@]12N=C(C)O[C@@H]1C[C@H]1[C@@H]3CCC4=CC(=O)C=C[C@]4(C)[C@H]3[C@@H](O)C[C@@]12C [Deflazacort]
204.8
5) OCC(CO)(CO)COCC(CO)(CO)CO [Dipentaerythritol]
154.2
6) Cc1nc(-c2ccccn2)ncc1C(=O)Nn1cc(C)c2cc(F)ccc21
184.3
7) CC[C@]12CCCN3CCc4c(n(c5ccccc45)[C@@](O)(C(=O)OC)C1)[C@@H]32 [Vincamine]
183.2
8) CCCCNc1ccc(NCCCC)c2c1C(=O)c1ccccc1C2=O [1,4-Bis(butylamino)anthracene-9,10-dione]
192.8
9) CN(C)C(=O)Nc1ccc(Cl)c(Cl)c1 [Diuron]
150.9
10) Oc1c(Cl)cc(Cl)cc1Sc1cc(Cl)cc(Cl)c1O [Bithionol]
154.7

----------
experiment: collision cross section in nitrogen (drift tube, single-field); higher = larger gas-phase ion size; details: ion type: [M+H]; ion source: ESI; ion mode: Positive
This listing pairs compounds with measured collision cross section in nitrogen.
readout-label: collision cross section in nitrogen (Å²)

1) O=c1n(CC2CO2)c(=O)n(CC2CO2)c(=O)n1CC1CO1 (stereo not given) [Tris(2,3-epoxypropyl)isocyanurate]
160.1
2) COC(=O)N(C(=O)N1COC2(C(=O)OC)Cc3cc(Cl)ccc3C2=N1)c1ccc(OC(F)(F)F)cc1 (racemic) [(+/-)-Indoxacarb]
205.6
3) CCOP(=O)(OCC)OC(=CCl)c1ccc(Cl)cc1Cl
170.1
4) Cn1sccc1=O
117.9
5) O=C(O)c1cc(=O)c2c(OCC(O)COc3cccc4oc(C(=O)O)cc(=O)c34)cccc2o1 [Cromolyn sodium]
208.8
6) CC(C)c1c(C(=O)Nc2ccccc2)c(-c2ccccc2)c(-c2ccc(F)cc2)n1CC[C@@H](O)C[C@@H](O)CC(=O)O
230.3
7) CC(=O)NC1(c2cccc(F)c2)CCN(CC[C@@]2(c3ccc(Cl)c(Cl)c3)CN(c3ccccc3)C(=O)CO2)CC1
243.8
8) CCN(CCC#N)c1ccc(N=Nc2c(Cl)cc([N+](=O)[O-])cc2Cl)cc1
197.9
9) CC1(C)CCC(C)(C)c2cc(C(=O)Nc3ccc(C(=O)O)cc3)ccc21
198.2
10) CN(N=O)c1ccccc1
125.1
11) O=C1OC2(c3ccc(O)cc3Oc3cc(O)ccc32)c2ccccc21
174.2
12) OCc1cccnc1
119.8
13) Clc1ccc(COC(Cn2ccnc2)c2ccc(Cl)cc2Cl)cc1 (stereo not given) [Econazole nitrate]
185.7
14) CN(C)CCOCCN(C)CCO [2-[{2-[2-(Dimethylamino)ethoxy]ethyl}(methyl)amino]ethanol]
138.3
15) C[N+](C)(C)CC(=O)[O-]
121.4

----------
assay: collision cross section in nitrogen (drift tube, single-field); higher = larger gas-phase ion size; details: ion type: [M+Na]; ion source: ESI; ion mode: Positive
Counter-ions that a name gives are not always drawn.
Param threshold (200 Å²) applies to collision cross section in nitrogen; output rule met when value >= threshold, rule not met when value < threshold.

1. Cc1cc(C(F)(C(F)(F)F)C(F)(F)F)ccc1NC(=O)c1cccc(I)c1C(=O)NC(C)(C)CS(C)(=O)=O [Flubendiamide]
rule met
2. CC(CN1c2ccccc2Sc2ccccc21)N(C)C (stereo not given) [Promethazine hydrochloride]
rule not met
3. FC(F)(F)c1ccc(OCCCOc2c(Cl)cc(OCC=C(Cl)Cl)cc2Cl)nc1
rule met
4. COc1ncc(F)c2nc(S(=O)(=O)Nc3c(F)cccc3F)nn12
rule not met
5. COP(=O)(OC)O/C(=C\Cl)c1cc(Cl)c(Cl)cc1Cl
rule not met
6. N#Cc1ccc(CC(=NNC(=O)Nc2ccc(OC(F)(F)F)cc2)c2cccc(C(F)(F)F)c2)cc1
rule met
7. O=C(O)CCCC[C@@H]1SC[C@H]2NC(=O)N[C@@H]12
rule not met
8. CCCCC[C@H](O)CC(=O)CCc1ccc(O)c(OC)c1
rule not met
9. CCCOC(=O)c1ccccc1C(=O)OCCC [Di-n-propylphthalate]
rule not met
10. O=c1cc(-c2ccccc2)oc2ccc3ccccc3c12
rule not met
11. COc1ccc(NC(=O)CC(C)=O)cc1 [N-(4-Methoxyphenyl)-3-oxobutanamide]
rule not met
12. CCCCCCCCCCCCCCN(CCO)CCO
rule not met
13. CCCCC(CC)COC(=O)CCCCC(=O)OCC(CC)CCCC (stereo not given) [Bis(2-ethylhexyl)hexanedioate]
rule met
14. O=C(/C=C/C=C/c1ccc2c(c1)OCO2)N1CCCCC1
rule not met
15. NC(N)=Nc1nc(CSCCC(N)=NS(N)(=O)=O)cs1
rule not met
16. CC[C@H]1OC(=O)[C@H](C)[C@@H](O[C@H]2C[C@@](C)(OC)[C@@H](O)[C@H](C)O2)[C@H](C)[C@@H](O[C@@H]2O[C@H](C)C[C@H](N(C)C)[C@H]2O)[C@](C)(O)C[C@@H](C)C(=NOCOCCOC)[C@H](C)[C@@H](O)[C@]1(C)O
rule met
17. C=CCOC(=O)c1ccccc1C(=O)OCC=C [Diallyl phthalate]
rule not met
18. Nc1nc(Cl)nc2c1ncn2[C@H]1C[C@H](O)[C@@H](CO)O1
rule not met
19. CC(=O)Nc1c(I)c(NC(C)=O)c(I)c(C(=O)O)c1I [Diatrizoate sodium]
rule not met
